test system: OE 21; test: In vitro human tumor cell line cytotoxicity assay; format: cell-based; conditions: OE21, read-out: RelIC50
readout kind: IC50

[
  {
    "compound": "C[C@H](OP(=O)(N1CC1)N1CC1)c1ccc([N+](=O)[O-])c(Oc2cccc(C(=O)N(C)C)c2)c1 (single isomer, unassigned) [TH3424]",
    "observed result": "5.2 nM"
  }
]

----------
test: Pharmacokinetics (TK) after 30-min IV infusion in monkeys; type: in vivo, Cynomolgus monkeys; conditions: cynomolgus monkey, plasma; female; 2 mg/kg 30-min IV infusion; read-out: Vss
readout kind: Vd (L/kg)

[
  {
    "compound": "C[C@@H](OP(=O)(N1CC1)N1CC1)c1ccc([N+](=O)[O-])c(Oc2cccc(C(=O)N(C)C)c2)c1 (single isomer, unassigned)",
    "observed result": 0.469
  },
  {
    "compound": "C[C@H](OP(=O)(N1CC1)N1CC1)c1ccc([N+](=O)[O-])c(Oc2cccc(C(=O)N(C)C)c2)c1 (single isomer, unassigned)",
    "observed result": 0.36
  }
]

----------
Tested on: HL-60
Test: In vitro human tumor cell line cytotoxicity assay
Format: cell-based
Conditions: read-out: RelIC50
Experimental: TH 2870, TH 3423 and TH 3424 was also tested in different cancer cell lines using the materials and procedures as follows. […] The BCA protein quantification kit for protein quantification was used with 1* cell lysate to dilute the cell lysate to the same concentration. […]
readout kind: IC50 (nM)

[
  {
    "compound": "C[C@H](OP(=O)(N1CC1)N1CC1)c1ccc([N+](=O)[O-])c(Oc2cccc(C(=O)N(C)C)c2)c1 (single isomer, unassigned) [TH3424]",
    "system name": "HL-60",
    "readout kind": "IC50",
    "observed result": 3
  }
]

----------
# maps each entry to its concentration at 0.5 hr
experiment: Pharmacokinetics (TK) after 30-min IV infusion in monkeys; type: in vivo, Cynomolgus monkeys; conditions: cynomolgus monkey, plasma; female, 0.5 hr; 2 mg/kg 30-min IV infusion; read-out: Plasma concentration
readout kind: concentration at 0.5 hr

[
  {
    "compound": "C[C@H](OP(=O)(N1CC1)N1CC1)c1ccc([N+](=O)[O-])c(Oc2cccc(C(=O)N(C)C)c2)c1 (single isomer, unassigned) [TH3424]",
    "readout kind": "concentration at 0.5 hr",
    "observed result": "2090 ng/mL"
  },
  {
    "compound": "C[C@@H](OP(=O)(N1CC1)N1CC1)c1ccc([N+](=O)[O-])c(Oc2cccc(C(=O)N(C)C)c2)c1 (single isomer, unassigned) [TH3423]",
    "readout kind": "concentration at 0.5 hr",
    "observed result": "1370 ng/mL"
  }
]

----------
test system: TE-11; experiment: In vitro human tumor cell line cytotoxicity assay; type: cell-based; details: read-out: RelIC50
pIC50: −log10 of the molar value.
readout kind: pIC50

[
  {
    "molecule": "C[C@H](OP(=O)(N1CC1)N1CC1)c1ccc([N+](=O)[O-])c(Oc2cccc(C(=O)N(C)C)c2)c1 (single isomer, unassigned)",
    "observed result": 8.57
  }
]

----------
test system: THP-1_; test: In vitro human tumor cell line cytotoxicity assay; assay type: cell-based; details: read-out: RelIC50
pIC50: −log10 of the molar value.
readout kind: pIC50

[
  {
    "molecule": "C[C@H](OP(=O)(N1CC1)N1CC1)c1ccc([N+](=O)[O-])c(Oc2cccc(C(=O)N(C)C)c2)c1 (single isomer, unassigned) [TH3424]",
    "system name": "THP-1_",
    "readout kind": "pIC50",
    "observed result": "< 6.00"
  }
]

Provenance of the data: patent EP3390415B1
